Biological target: T1, full length cynomolgus monkey C10orf54 (construct CC4) (cynomolgus monkey, UniProt Q9H7M9 33-311 (human entry))
T1 construct: also called C10orf54 Construct 4
T1 chain: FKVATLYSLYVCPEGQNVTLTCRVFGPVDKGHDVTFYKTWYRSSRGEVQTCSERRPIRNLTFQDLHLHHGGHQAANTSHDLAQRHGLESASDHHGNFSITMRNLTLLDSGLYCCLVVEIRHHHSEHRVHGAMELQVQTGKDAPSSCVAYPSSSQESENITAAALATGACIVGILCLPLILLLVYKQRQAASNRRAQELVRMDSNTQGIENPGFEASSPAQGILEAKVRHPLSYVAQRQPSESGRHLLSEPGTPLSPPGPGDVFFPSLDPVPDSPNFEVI
Assay: flow cytometry, transfected 293t cells, 2 ug/ml; stain = MFI >=20-fold over isotype control
PROPERTY LABEL: binding result

Item under review: murine monoclonal antibody 128A (antibody, V domains shown, Mouse hybridoma antibody) VH: QVQLQQSGAELVRPGVSVKISCKGSGYTFTDYGMHWVKQSHAKSLEWIGLIDTYYGDATYNHKFKGKATMTVDKSSRTAYMELARLTSEDSAIYYCARRAGNAMDYWGQGTSVTASS VL: NIAMTQTPKFLLVSAGDRVTITCKASQSVSNDIAWYQQKPGQSPRLLIYYASNRYTGVPDRFTGSGYGTDFTFTISTVQAEDLAVYFCQQDYSSPRTFGGGTKLEIK . Reported binding result?
binds

Record: murine monoclonal antibody 141A (antibody, V domains shown, Mouse hybridoma antibody) VH: QVQLQQSGAELMKPGASVKISCKATGYTFSRYWIEWVKQRPGHGLEWIGEILPGSGSTNYNEKFKGKATFTADTSSNTAYMQLSSLTSEDSAVYYCAGEEVYDGYPWFGYWGQGTLVTVSA VL: QIVLSQSPAILSASPGEKVTMTCRASSSLSYMHWYQQKPGSSPKPWIYATSNLASGVPARFSGSGSGTSYSLTISRVEAEDAATYYCQQWSSNPYTFGGGTKLEIK
binds

Record: murine monoclonal antibody 76E1 (antibody, V domains shown, Mouse hybridoma antibody) VH: EVQLLQSGPELEKPGASVKISCKASGYSFTGYNMNWVKQSNGKSLEWIGNIDPYYDYTSYNLKFKDKATLTVDKSSSTAYMQLKSLTSEDSAVYYCATSTMITPFDYWGQGTTLTVSS VL: DVLMTQTPLSLPVSLGDQASISCRSSQSIVHSNGNTYLEWYLQKPGQSPKLLIYKVSNRFSGVPDRFSGSGSGTDFTLKINRVEAEDLGVYYCFQGSHVPWTFGGGTKLEIK
binds
